- assay.remarks: Cytotoxicity against human 502713 cells at 10 uM after 48 hrs
- Format: functional
- test.context: Homo sapiens, 502713, 48 h
In this scheme, each record receives a class according to its inhibition at 10 µM; the ranges are I (below 10%), II (10% to below 30%), III (30% or more)

Lab note: sort CCCC(=O)N[C@@]1(C)[C@@H](OC(=O)CCC)CC[C@@]2(C)[C@H]1CC[C@]1(C)[C@@H]2CC=C2[C@@H]3[C@@H](C)[C@H](C)CC[C@]3(C)CC[C@]21C into the matching inhibition at 10 µM band. II

Lab note: sort CC(=O)N[C@]1(C)[C@@H]2CC[C@]3(C)[C@H](CC=C4[C@@H]5[C@@H](C)[C@H](C)CC[C@]5(C)CC[C@]43C)[C@@]2(C)CC[C@H]1OC(C)=O into the matching inhibition at 10 µM band. I

Lab note: sort CC(=O)N[C@@]1(C)[C@@H](OC(C)=O)CC[C@@]2(C)[C@H]1CC[C@]1(C)[C@@H]2CC=C2[C@@H]3[C@@H](C)[C@H](C)CC[C@]3(C)CC[C@]21C into the matching inhibition at 10 µM band. I

Lab note: sort COC(=O)[C@@]1(C)[C@H](O)CC[C@@]2(C)[C@H]1CC[C@]1(C)[C@@H]2CC=C2[C@@H]3[C@@H](C)[C@H](C)CC[C@]3(C)CC[C@]21C into the matching inhibition at 10 µM band. II

Lab note: sort C[C@H]1[C@H](C)CC[C@]2(C)CC[C@]3(C)C(=CC[C@@H]4[C@@]5(C)CC[C@@H](O)[C@](C)(N)[C@@H]5CC[C@]43C)[C@H]12 into the matching inhibition at 10 µM band. III

Lab note: sort CC(=O)N[C@]1(C)[C@@H]2CC[C@]3(C)[C@H](C(=O)C=C4[C@@H]5[C@@H](C)[C@H](C)CC[C@]5(C)CC[C@]43C)[C@@]2(C)CC[C@H]1OC(C)=O into the matching inhibition at 10 µM band. II

Lab note: sort CC(=O)O[C@H]1C(=O)[C@@]2(C)[C@H]([C@H](OC(=O)c3ccccc3)[C@]3(O)C[C@H](OC(=O)[C@H](O)[C@@H](NC(=O)c4ccccc4)c4ccccc4)C(C)=C1C3(C)C)[C@]1(OC(C)=O)CO[C@@H]1C[C@@H]2O [PACLITAXEL] into the matching inhibition at 10 µM band. II

Lab note: sort CCC(=O)N[C@]1(C)[C@@H]2CC[C@]3(C)[C@H](CC=C4[C@@H]5[C@@H](C)[C@H](C)CC[C@]5(C)CC[C@]43C)[C@@]2(C)CC[C@H]1OC(=O)CC into the matching inhibition at 10 µM band. I

Lab note: sort COC(=O)[C@@]1(C)C(=O)CC[C@]2(C)[C@H]3CC=C4[C@@H]5[C@@H](C)[C@H](C)CC[C@]5(C)CC[C@@]4(C)[C@]3(C)CC[C@@H]12 into the matching inhibition at 10 µM band. II

Lab note: sort CC(=O)O[C@@H]1CC[C@]2(C)[C@H]3C(=O)C=C4[C@@H]5[C@@H](C)[C@H](C)CC[C@]5(C)CC[C@@]4(C)[C@]3(C)CC[C@H]2[C@@]1(C)N into the matching inhibition at 10 µM band. III
